Below: a set of entries, each annotated with reported TC in liver.
Test system: fatty liver
Assay method text: High fat diet-induced fatty liver in B6 mice
Assay type: in vivo
Protocol conditions: HFD mice; 1.5 mg/kg; administration period of 4 weeks
Method: More than four mice were used in each group of the pre-test, while more than twelve mice were used in each group of the confirmatory test. […] The weight of mice was recorded once a week. […] Furthermore, the liver function of animals of each group were analyzed by Galactose Single Point Method, which was recognized and recommended for quantification of remaining liver function in clinical use by U.S. FDA and Ministry of Health and Welfare, Taiwan. […]

[
  {
    "Compound": "CC1CCC(C(C)C)C(O)C1 (stereo not shown)",
    "Unit label": "mg/g liver",
    "TC in liver": 4.4
  },
  {
    "Compound": "OC[C@@H](O)[C@@H](O)[C@H](O)[C@H](O)CO",
    "Unit label": "mg/g liver",
    "TC in liver": 3.4
  },
  {
    "Compound": "O=C1NS(=O)(=O)c2ccccc21",
    "Unit label": "mg/g liver",
    "TC in liver": 2.8
  },
  {
    "Compound": "OC[C@H]1O[C@H](O[C@]2(CCl)O[C@H](CCl)[C@@H](O)[C@@H]2O)[C@H](O)[C@@H](O)[C@H]1Cl",
    "Unit label": "mg/g liver",
    "TC in liver": 3.0
  }
]

* * *

System: fatty liver
Assay method text: High fat diet-induced fatty liver in B6 mice
Format: in vivo
Protocol conditions: HFD mice; 2.5 mg/kg
This section presents molecules with their documented Abdominal fat weight values.
Parameter: Abdominal fat weight

[
  {
    "Smiles repr": "O=c1c(-c2ccc(O)cc2)coc2c([C@@H]3O[C@H](CO)[C@@H](O)[C@H](O)[C@H]3O)c(O)ccc12",
    "Measured result": "2.8 ± 0.3 g"
  },
  {
    "Smiles repr": "O=C1C[C@@H](c2ccc(O)c(O)c2)Oc2cc(O)cc(O)c21",
    "Measured result": "2.7 ± 0.6 g"
  },
  {
    "Smiles repr": "COc1ccc([C@@H]2CC(=O)c3c(O)cc(O)cc3O2)cc1O",
    "Measured result": "3.0 ± 0.5 g"
  },
  {
    "Smiles repr": "O=C(CCc1ccc(O)cc1)c1c(O)cc(O)cc1O[C@@H]1O[C@H](CO)[C@@H](O)[C@H](O)[C@H]1O",
    "Measured result": "2.3 ± 0.6 g"
  }
]

* * *

Test system: fatty liver
Assay method text: High fat diet-induced fatty liver in B6 mice
Type: in vivo
Protocol conditions: HFD mice; 2.5 mg/kg
Parameter: Liver weight (g)

[
  {
    "Smiles repr": "O=C(CCc1ccc(O)cc1)c1c(O)cc(O)cc1O[C@@H]1O[C@H](CO)[C@@H](O)[C@H](O)[C@H]1O",
    "Unit label": "g",
    "Measured result": 1.3
  },
  {
    "Smiles repr": "O=C1C[C@@H](c2ccc(O)c(O)c2)Oc2cc(O)cc(O)c21",
    "Unit label": "g",
    "Measured result": 1.3
  },
  {
    "Smiles repr": "COc1ccc([C@@H]2CC(=O)c3c(O)cc(O)cc3O2)cc1O",
    "Unit label": "g",
    "Measured result": 1.5
  },
  {
    "Smiles repr": "O=c1c(-c2ccc(O)cc2)coc2c([C@@H]3O[C@H](CO)[C@@H](O)[C@H](O)[C@H]3O)c(O)ccc12",
    "Unit label": "g",
    "Measured result": 1.4
  }
]

* * *

System: HepG2 fatty liver cells
Assay method text: TG content in oleic acid-induced fatty liver cells from HepG2
Assay type: cell-based, human
Protocol conditions: tested substances 1.0 μM
Parameter: TG reduction rate (%)

[
  {
    "Compound": "O=c1cc(-c2ccc(O)c(O)c2)oc2cc(O[C@@H]3O[C@H](CO)[C@@H](O)[C@H](O)[C@H]3O)cc(O)c12 [Luteolin-7-glucoside]",
    "Parameter": "TG reduction rate (%)",
    "Measured result": 19.33
  },
  {
    "Compound": "O=c1c(O)c(-c2ccc(O)c(O)c2)oc2c(O[C@@H]3O[C@H](CO)[C@@H](O)[C@H](O)[C@H]3O)c(O)cc(O)c12 [Gossypin]",
    "Parameter": "TG reduction rate (%)",
    "Measured result": 20.25
  },
  {
    "Compound": "COc1c(O)cc(O)c2c(=O)cc(-c3ccccc3)oc12 [Wongonin]",
    "Parameter": "TG reduction rate (%)",
    "Measured result": 20.78
  },
  {
    "Compound": "Oc1cc(O)c2c(c1)O[C@H](c1cc(O)c(O)c(O)c1)[C@H](O)C2 [(−)-Epigallocatechin]",
    "Parameter": "TG reduction rate (%)",
    "Measured result": 36.78
  },
  {
    "Compound": "COc1ccc(-c2cc(=O)c3c(O)cc(O[C@@H]4O[C@H](CO[C@@H]5O[C@@H](C)[C@H](O)[C@@H](O)[C@H]5O)[C@@H](O)[C@H](O)[C@H]4O)cc3o2)cc1 [Linarin]",
    "Parameter": "TG reduction rate (%)",
    "Measured result": 9.24
  },
  {
    "Compound": "O=C([O-])c1ccccc1.[Na+] [Sodium benzoate]",
    "Parameter": "TG reduction rate (%)",
    "Measured result": 14.35
  },
  {
    "Compound": "Oc1cc(O)c2c(c1)O[C@H](c1ccc(O)c(O)c1)[C@@H](O)C2 [(+)-Catechin]",
    "Parameter": "TG reduction rate (%)",
    "Measured result": 29.57
  },
  {
    "Compound": "COc1ccc([C@@H]2CC(=O)c3c(O)cc(O[C@@H]4O[C@H](CO)[C@@H](O)[C@H](O)[C@H]4O[C@@H]4O[C@@H](C)[C@H](O)[C@@H](O)[C@H]4O)cc3O2)cc1O [Neohesperidin]",
    "Parameter": "TG reduction rate (%)",
    "Measured result": 13.29
  },
  {
    "Compound": "C[C@@H]1O[C@@H](Oc2c(-c3ccc(O)c(O)c3)oc3cc(O)cc(O)c3c2=O)[C@H](O)[C@H](O)[C@H]1O [Quercitrin]",
    "Parameter": "TG reduction rate (%)",
    "Measured result": 9.15
  },
  {
    "Compound": "COc1ccc([C@@H]2CC(=O)c3c(O)cc(O[C@@H]4O[C@H](CO[C@@H]5O[C@@H](C)[C@H](O)[C@@H](O)[C@H]5O)[C@@H](O)[C@H](O)[C@H]4O)cc3O2)cc1 [Didymin]",
    "Parameter": "TG reduction rate (%)",
    "Measured result": 20.37
  },
  {
    "Compound": "O=S(=O)([O-])NC1CCCCC1.[Na+] [Sodium cyclamate]",
    "Parameter": "TG reduction rate (%)",
    "Measured result": 4.77
  },
  {
    "Compound": "COc1ccc([C@@H]2CC(=O)c3c(O)cc(O[C@@H]4O[C@H](CO[C@@H]5O[C@@H](C)[C@H](O)[C@@H](O)[C@H]5O)[C@@H](O)[C@H](O)[C@H]4O)cc3O2)cc1O [Hesperidin]",
    "Parameter": "TG reduction rate (%)",
    "Measured result": 34.81
  },
  {
    "Compound": "COc1ccc(O)c(C(C)(C)C)c1 [Butylated hydroxyanisole]",
    "Parameter": "TG reduction rate (%)",
    "Measured result": 6.21
  },
  {
    "Compound": "Oc1cc(O)c2c(c1)O[C@H](c1ccc(O)c(O)c1)[C@H](O)C2 [(−)-Epicatechin]",
    "Parameter": "TG reduction rate (%)",
    "Measured result": 10.76
  },
  {
    "Compound": "O=C(O)c1ccc(O)c(O)c1 [Protocatechuic acid]",
    "Parameter": "TG reduction rate (%)",
    "Measured result": 18.57
  },
  {
    "Compound": "COc1ccc(-c2cc(=O)c3c(O)cc(O)c(-c4cc(-c5cc(=O)c6c(O)cc(OC)cc6o5)ccc4OC)c3o2)cc1 [Sciadopitysin]",
    "Parameter": "TG reduction rate (%)",
    "Measured result": 21.83
  }
]

* * *

Test system: fatty liver
Assay method text: High fat diet-induced fatty liver in B6 mice
Assay type: in vivo
Protocol conditions: HFD mice, liver; 2.5 mg/kg; test period of 4 weeks
The following molecules are listed with their measured Grd values.
Parameter: Grd (U/L)

[
  {
    "Smiles repr": "COc1ccc([C@@H]2CC(=O)c3c(O)cc(O)cc3O2)cc1O",
    "Parameter": "Grd",
    "Measured result": 102.5
  },
  {
    "Smiles repr": "O=C(CCc1ccc(O)cc1)c1c(O)cc(O)cc1O[C@@H]1O[C@H](CO)[C@@H](O)[C@H](O)[C@H]1O",
    "Parameter": "Grd",
    "Measured result": 82.2
  },
  {
    "Smiles repr": "O=c1c(-c2ccc(O)cc2)coc2c([C@@H]3O[C@H](CO)[C@@H](O)[C@H](O)[C@H]3O)c(O)ccc12",
    "Parameter": "Grd",
    "Measured result": 99.0
  },
  {
    "Smiles repr": "O=C1C[C@@H](c2ccc(O)c(O)c2)Oc2cc(O)cc(O)c21",
    "Parameter": "Grd",
    "Measured result": 86.9
  }
]
